# study_target: hERG channel (Homo sapiens)
# Sequence (Q12809 whole entry): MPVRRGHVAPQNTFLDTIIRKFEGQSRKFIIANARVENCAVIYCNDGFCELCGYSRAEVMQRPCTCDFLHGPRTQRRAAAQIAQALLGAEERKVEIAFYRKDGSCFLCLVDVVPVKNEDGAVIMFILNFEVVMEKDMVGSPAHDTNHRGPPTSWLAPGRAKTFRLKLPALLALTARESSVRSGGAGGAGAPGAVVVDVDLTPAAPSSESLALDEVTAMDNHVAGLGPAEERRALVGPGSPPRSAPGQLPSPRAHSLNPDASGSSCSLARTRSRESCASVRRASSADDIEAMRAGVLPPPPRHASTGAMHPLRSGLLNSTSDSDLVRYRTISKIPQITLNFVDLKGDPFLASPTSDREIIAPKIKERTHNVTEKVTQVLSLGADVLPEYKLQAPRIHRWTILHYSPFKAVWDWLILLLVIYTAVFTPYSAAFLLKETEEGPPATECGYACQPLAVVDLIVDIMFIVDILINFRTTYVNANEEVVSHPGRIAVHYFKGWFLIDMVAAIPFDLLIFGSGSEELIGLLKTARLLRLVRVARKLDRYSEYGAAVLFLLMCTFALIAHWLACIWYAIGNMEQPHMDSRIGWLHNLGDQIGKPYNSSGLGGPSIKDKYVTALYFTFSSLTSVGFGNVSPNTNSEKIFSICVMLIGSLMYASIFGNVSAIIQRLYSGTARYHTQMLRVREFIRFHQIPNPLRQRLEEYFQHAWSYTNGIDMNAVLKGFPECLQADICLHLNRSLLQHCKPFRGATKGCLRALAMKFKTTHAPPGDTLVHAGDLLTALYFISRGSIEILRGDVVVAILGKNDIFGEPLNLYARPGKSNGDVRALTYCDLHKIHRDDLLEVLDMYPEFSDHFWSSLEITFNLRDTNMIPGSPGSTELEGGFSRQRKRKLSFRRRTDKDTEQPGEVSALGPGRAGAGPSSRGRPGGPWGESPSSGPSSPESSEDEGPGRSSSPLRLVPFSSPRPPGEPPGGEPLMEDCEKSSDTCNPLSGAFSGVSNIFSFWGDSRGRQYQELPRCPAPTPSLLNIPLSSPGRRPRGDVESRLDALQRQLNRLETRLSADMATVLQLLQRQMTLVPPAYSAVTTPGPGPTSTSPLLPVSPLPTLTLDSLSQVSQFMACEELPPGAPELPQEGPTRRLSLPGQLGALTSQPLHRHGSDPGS
# procedure_details: cell-based
pIC50: −log10 of the molar value.
Listed here are compounds together with their documented pIC50.

Examples from the recorded data:
# compound, readout_label, recorded_value
records = [
    ("O=C1C[C@@H](c2c(O)ccc(Cl)c2Cl)CN1C1CNC1", "pIC50", "< 4.00"),
    ("O=C1C[C@@H](c2cc(Cl)c(Cl)cc2O)CN1C1CNC1", "pIC50", "< 4.00"),
    ("O=C1C[C@@H](c2c(O)ccc(Cl)c2Cl)CCN1[C@H]1CCNC1 (single isomer, unassigned)", "pIC50", "< 4.52"),
]

Inquiry: Please list pIC50 recorded for the compound NC(=O)CCN1C[C@H](c2c(O)ccc(Cl)c2Cl)CC1=O
Reply text: < 4.00

Inquiry: Give pIC50 for CC1[C@H](c2c(O)ccc(Cl)c2Cl)CC(=O)N1C[C@H](O)CO (stereo in doubt)
Reply text: < 4.52

Where do the numbers come from? From patent US20230373952A1.
